tested on: SARS-CoV-2; test: In vitro antiviral cell-based assay (live SARS-CoV-2), plaque reduction assay in VeroE6 cells; conditions: Severe acute respiratory syndrome coronavirus 2, Vero, read-out: Vero EC50 (μM)
attributeMeasured: EC50

Problem: Could you share what EC50 was measured for CC(C(=O)NC1CCC(F)(F)CC1)(c1cncnc1)N(C(=O)[C@H](F)Cl)c1ccc(-c2cncs2)cc1 (single isomer, unassigned) , tested on SARS-CoV-2?
Solution: 0.1 to 1 µM
